Items are presented alongside their recorded IC50.
tgt: DRB5*0101 (DR2w2a) (Homo sapiens, UniProt P01903+Q30154)
Construct: used as sources of human HLA class II molecules; endogenous in cells; host or cells: GM3107 (EBV-transformed homozygous B cell line)
experiment-description: Class II peptide-binding assay, DR2w2a (DR2w2B2);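 note: competitive binding assay: unlabeled peptide inhibiting binding of a radiolabeled probe peptide to purified DR molecules at pH 7.0, IC50 approximating Kd, lower means stronger binding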
particulars: read-out: DR2w2B2 nM (In IC50 Format); purified HLA DR2w2β2
Ends that are not written are not given here.
reported-metric: IC50 (µM)

{"substance": "YAAYVKLTAARKFA-NH2 [Peptide 806.03]", "output-unit": "µM", "value": 0.0007}
{"substance": "LLVIVELIPSTSS [Peptide 778.00]", "output-unit": "µM", "value": 2.22}
{"substance": "YASFVSQTAQRLFY-NH2 [Peptide 717.03]", "output-unit": "µM", "value": 0.008}
{"substance": "YARFASQTTLKAKT-NH2 [Peptide 717.56]", "output-unit": "µM", "value": 0.118}
{"substance": "YARFQFQTTLKAKT-NH2 [Peptide 717.46]", "output-unit": "µM", "value": 0.04}
{"substance": "YAEFQAEKTLKAAS-NH2 [Peptide 717.05]", "output-unit": "µM", "value": 0.339}
{"substance": "Ac-AFAAAATLKA-NH2 [Peptide 770.02]", "output-unit": "µM", "value": 0.133}
{"substance": "YARFNSQTTLKAKT-NH2 [Peptide 717.44]", "output-unit": "µM", "value": 0.08}
{"substance": "YIAFLKQATAKLAT [Peptide 723.01]", "output-unit": "µM", "value": 0.069}
{"substance": "YARFQSQTTLKAKA-NH2 [Peptide 717.48]", "output-unit": "µM", "value": 0.0408}
{"substance": "YARFQSQTPLKAKT-NH2 [Peptide 717.37]", "output-unit": "µM", "value": 0.0645}
{"substance": "YARFQSQTTAKAKT-NH2 [Peptide 717.51]", "output-unit": "µM", "value": 0.0667}
